# normalized growth per record follows
ASSAY COMMENT: chemical genetic growth profiling, strain panel (AID 1159580);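 further: tested at 20 µM; growth read once vehicle control cultures reached saturation at 30 °C; 1 = growth at the plate median or of vehicle wells; lower values mean less growth of the strain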
TEST SETTINGS: S. cerevisiae deletion strains, growth OD, locus YNL183C, strain NPR1, stronger effect = lower value
Screen size: about 5,500 compounds; about 2,000 (36%) were called active. Inconclusive results (about 18%) are left out. The list shows a part of the results.
Reply: number alone, nothing else.

Please review the following examples before continuing.
| COMPOUND | ENDPOINT LABEL | MEASUREMENT |
| --- | --- | --- |
| COc1ccc(/C(C#N)=C2C=C/C(=N/O)C(Cl)=C\2)cc1 | normalized growth | 0.862 |
| CC1(C)C[C@@H]2C(=O)CC[C@H]3O[C@]3(C)CC[C@H]21 | normalized growth | 0.905 |
| CC(Oc1ccc(Cl)cc1Cl)C(=O)NNC(=S)Nc1ccccc1 (stereo unspecified) | normalized growth | 1.01 |
| COC(=O)c1ccc(Oc2c(C(F)(F)F)oc3cc(O)ccc3c2=O)cc1 | normalized growth | 1.02 |
| CCS(=O)(=O)CCn1c([N+](=O)[O-])cnc1C | normalized growth | 0.915 |

# compound CN(C)c1nc(=S)ss1 ; its normalized growth = 0.341

====

Listing: normalized growth of selected compounds
ASSAY COMMENT: chemical genetic growth profiling, strain panel (AID 1159580);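 further: tested at 20 µM; growth read once vehicle control cultures reached saturation at 30 °C; 1 = growth at the plate median or of vehicle wells; lower values mean less growth of the strain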
TEST SETTINGS: S. cerevisiae deletion strains, growth OD, locus YPR167C, strain met16, stronger effect = lower value
In all, about 5,500 compounds went through this assay and about 2,000 (36%) were called active. About 18% were inconclusive and are not listed. Some of the results follow.

// worked examples, normalized growth included
| COMPOUND | ENDPOINT LABEL | MEASUREMENT |
| --- | --- | --- |
| COc1c2c(cc3occ(-c4ccc5c(c4)OCO5)c(=O)c13)OC(C)(C)C=C2 | normalized growth | 0.956 (inactive) |
| N#Cc1ccc2c(c1)N(CCCN1CCC(O)CC1)c1ccccc1S2 | normalized growth | 1.02 (inactive) |
| COc1cc(O)c(C(C)=O)c(OC)c1 | normalized growth | 0.991 (inactive) |
| COc1cc(OC)c2c(c1Cl)OC1(C2=O)C(O)=CC(=O)CC1C (configuration not stated) | normalized growth | 0.997 (inactive) |
| C[N+]1(C)C2CC[C@H]1CC(OC(=O)C(O)c1ccccc1)C2 (some centres not stated) | normalized growth | 1.02 (inactive) |
| O=c1c(-c2ccc3c(c2)OCO3)coc2cc(O)ccc12 | normalized growth | 0.982 (inactive) |

Given item CC1(C)C=Cc2c(cc3occ(-c4ccc5c(c4)OCO5)c(=O)c3c2O)O1 , the value recorded as its normalized growth is 0.967 (inactive)

====

ASSAY COMMENT: chemical genetic growth profiling, strain panel (AID 1159580);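 further: tested at 20 µM; growth read once vehicle control cultures reached saturation at 30 °C; 1 = growth at the plate median or of vehicle wells; lower values mean less growth of the strain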
TEST SETTINGS: S. cerevisiae deletion strains, growth OD, locus YHR142W, strain chs7, stronger effect = lower value
About 2,000 (36%) of roughly 5,500 compounds were called active. Another 18% or so got no clear call; they are omitted. This is one part of the list.
ENDPOINT LABEL: normalized growth
// return just the number, without any unit appended

| COMPOUND | normalized growth |
| --- | --- |
| O=C1c2ccccc2-c2cccc3cccc1c23 | 0.62 |
| COc1ccc2c(=O)c(CC(=O)O)coc2c1 | 0.995 |
| CC(=O)OC1CCC23C(=O)OC45CCC(C6=CC(=O)OC6)C4(C)CCC2C5CCC3(O)C1 (stereo not drawn) | 1.02 |
| CSCCC(NC=O)C(=O)NC(CC(C)C)C(=O)NC(Cc1ccccc1)C(=O)O (stereo not drawn) | 1.01 |
| CN(C)c1nc(N(C)C)nc(N(C)C)n1 | 0.929 |

Reported normalized growth ( COC(=O)C1=CO[C@@H](O[C@@H]2O[C@H](CO)[C@@H](O)[C@H](O)[C@H]2O)[C@@H]2[C@@H](C)[C@@H](O)C[C@H]12 ) = 1

The recorded normalized growth for entry CCS(=O)(=O)CCn1c([N+](=O)[O-])cnc1C equals 1.01

Entry CN1Cc2c(N)cccc2C(c2ccccc2)C1 (stereo not drawn) — recorded normalized growth = 1.01
